Target: human JAK2 (Homo sapiens, UniProt O60674)
Construct: JAK2 (a.a. 828-1132); His tag (N); made in house; host or cells: insect cells (baculovirus)
Sequence (O60674 828-1132): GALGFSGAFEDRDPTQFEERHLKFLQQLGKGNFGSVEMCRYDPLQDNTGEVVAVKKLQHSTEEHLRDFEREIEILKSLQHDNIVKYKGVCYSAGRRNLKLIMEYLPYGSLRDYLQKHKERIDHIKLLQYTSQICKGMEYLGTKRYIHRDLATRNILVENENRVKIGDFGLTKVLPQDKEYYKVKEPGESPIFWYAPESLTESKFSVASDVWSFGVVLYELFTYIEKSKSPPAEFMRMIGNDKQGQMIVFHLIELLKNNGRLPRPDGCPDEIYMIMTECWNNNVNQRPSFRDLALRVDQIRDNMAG
Assay: In Vitro JAK Kinase Assay (HTRF, phosphorylation of a biotinylated peptide), JAK2
Assay type: biochemical
Settings: Table 4; assay of Example A
measureName: JAK2/JAK1 IC50 ratio

>  <chemicalString>
N#CCC1(n2cc(-c3ncnc4[nH]ccc34)cn2)CN([C@H]2CC[C@@H](Oc3cc(CNCCO)nc(C(F)(F)F)n3)CC2)C1

>  <targetDesc>
human JAK2 (Homo sapiens, UniProt O60674)

>  <valueReported>
≧10

$$$$
>  <chemicalString>
CCN(CCO)Cc1cc(O[C@H]2CC[C@@H](N3CC(CC#N)(n4cc(-c5ncnc6[nH]ccc56)cn4)C3)CC2)nc(C(F)(F)F)n1

>  <targetDesc>
human JAK2 (Homo sapiens, UniProt O60674)

>  <valueReported>
≧10

$$$$
>  <chemicalString>
N#CCC1(n2cc(-c3ncnc4[nH]ccc34)cn2)CN([C@H]2CC[C@@H](Oc3cc(CN4CCC[C@H]4CO)nc(C(F)(F)F)n3)CC2)C1

>  <targetDesc>
human JAK2 (Homo sapiens, UniProt O60674)

>  <valueReported>
≧10

$$$$

Hello, the source for this data is patent US9359358B2, in case you need it.
